# testedTarget: ZFP SBS#1072 (synthetic)
# Sequence (chain, as listed by the source): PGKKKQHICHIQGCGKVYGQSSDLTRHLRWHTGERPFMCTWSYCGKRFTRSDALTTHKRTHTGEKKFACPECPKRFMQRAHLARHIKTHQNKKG
# assayDetails: EMSA
# experimentalSetup: tags: MBP fusion
pKd: −log10 of the molar value.
measurementType: pKd

{"binder": "GGATTGGCT (dsDNA) DNA 1: GGATTGGCT DNA 2: AGCCAATCC", "measurementType": "pKd", "valueObserved": 9.34}

Source of measurements: patent US20030068675
